- System: Rattus norvegicus
- assay.name: Terminal plasma concentration in Lewis rat at 10 mg/kg, po administered once daily
- Assay type: ADME, organism-based
- cond: in vivo, read-out: Cp(T)
property.name: concentration (µM)

# given.smiles, value.measured
rows = [
    ("N#Cc1ccc2ncnc(N[C@H]3CC[C@H](N4CCOCC4)CC3)c2c1", 19),
]
